- study system: 5HT2A (Homo sapiens, UniProt P28223)
- procedure text: Receptor Selection and Amplification (R-SAT) functional assay
- Format: cell-based
- Parameters: expressed in transfected cells; host or cells: NIH3T3 cells, pSI mammalian expression vector
- protocol conditions: NIH3T3 cells; Ki from IC50 by Cheng and Prussoff; read-out: 5-HT2a (pKi) (R-SAT) (converted)
observed property: Ki (nM)

molecule	unit of measurement	Ki
CC(C)COc1ccc(CNC(=O)N(Cc2cccc(F)c2F)C2CCN(C)CC2)cc1	nM	50.1

[1] CN1CCC(N(Cc2ccc(F)cc2F)C(=O)NCc2ccc(OCC(F)F)cc2)CC1
[2] CC(C)COc1ccc(CNC(=O)N(Cc2ccc(F)cc2OC(F)(F)F)C2CCN(C)CC2)cc1
### Prompt From the recorded data, which exceeds the other in Ki: 1 or 2 ? Which one? Tell me its label.
### Response 2
(2: 251 nM, 1: 1.26 nM)

[P] CC(C)Oc1ccc(CNC(=O)N(Cc2ccc(F)c(F)c2)C2CCN(C)CC2)cc1
[Q] Cc1noc2ccc(CNC(=O)N(Cc3ccc(F)cc3F)C3CCN(C)CC3)cc12
### Prompt For the pair P and Q , which entry has the numerically smaller recorded Ki? Which one? Tell me its label.
### Response Q
(Q: 3.98 nM, P: 79.4 nM)

====

- study system: 5HT2A (Homo sapiens)
- procedure text: Beta-arrestin recruitment assay (Tango technology, antagonist mode)
- Format: cell-based
- Set-up: engineered protease cleavage site followed by tethered transcription factor (C)
- protocol conditions: read-out: 5HT2A (pIC50) Beta-arrestin (converted)
observed property: IC50 (nM)

smiles notation	observed property	test result
Cc1cc2cc(CNC(=O)N(Cc3ccc(F)cc3F)C3CCN(C)CC3)ccc2n1C	IC50	100
CC(C)Oc1ccc(CNC(=O)N(Cc2ccc(C#N)cc2F)C2CCN(C)CC2)cc1	IC50	126
CN1CCC(N(Cc2ccc(F)cc2F)C(=O)NCc2ccc3c(c2)OC(C)(C)C=C3)CC1	IC50	316
Cc1n[nH]c2ccc(CNC(=O)N(Cc3ccc(F)cc3F)C3CCN(C)CC3)cc12	IC50	251
O=C(O)C(F)(F)F.[2H]C([2H])([2H])C(N1CCC(N(Cc2ccc(F)cc2F)C(=O)NCc2ccc(OC(C)C)cc2)CC1)C([2H])([2H])[2H]	IC50	3.98
CN1CCC(N(Cc2ccc(F)cc2F)C(=O)NCc2ccc3c(c2)CCC3)CC1	IC50	3.98

[1] CN1CCC(N(Cc2ccc(F)cc2F)C(=O)NCc2ccc3ncccc3c2)CC1
[2] Cc1noc2cc(CNC(=O)N(Cc3ccc(F)cc3F)C3CCN(C)CC3)ccc12
### Prompt For the pair 1 and 2 , which entry has the numerically smaller recorded IC50? Which one? Tell me its label.
### Response 1
(1: 79.4 nM, 2: 126 nM)

====

Item-by-item account of inhibition at 1 µM
- study system: hERG channel (Homo sapiens, UniProt Q12809)
- Construct: host or cells: CHO cells, stably transfected
- Sequence (Q12809 whole entry): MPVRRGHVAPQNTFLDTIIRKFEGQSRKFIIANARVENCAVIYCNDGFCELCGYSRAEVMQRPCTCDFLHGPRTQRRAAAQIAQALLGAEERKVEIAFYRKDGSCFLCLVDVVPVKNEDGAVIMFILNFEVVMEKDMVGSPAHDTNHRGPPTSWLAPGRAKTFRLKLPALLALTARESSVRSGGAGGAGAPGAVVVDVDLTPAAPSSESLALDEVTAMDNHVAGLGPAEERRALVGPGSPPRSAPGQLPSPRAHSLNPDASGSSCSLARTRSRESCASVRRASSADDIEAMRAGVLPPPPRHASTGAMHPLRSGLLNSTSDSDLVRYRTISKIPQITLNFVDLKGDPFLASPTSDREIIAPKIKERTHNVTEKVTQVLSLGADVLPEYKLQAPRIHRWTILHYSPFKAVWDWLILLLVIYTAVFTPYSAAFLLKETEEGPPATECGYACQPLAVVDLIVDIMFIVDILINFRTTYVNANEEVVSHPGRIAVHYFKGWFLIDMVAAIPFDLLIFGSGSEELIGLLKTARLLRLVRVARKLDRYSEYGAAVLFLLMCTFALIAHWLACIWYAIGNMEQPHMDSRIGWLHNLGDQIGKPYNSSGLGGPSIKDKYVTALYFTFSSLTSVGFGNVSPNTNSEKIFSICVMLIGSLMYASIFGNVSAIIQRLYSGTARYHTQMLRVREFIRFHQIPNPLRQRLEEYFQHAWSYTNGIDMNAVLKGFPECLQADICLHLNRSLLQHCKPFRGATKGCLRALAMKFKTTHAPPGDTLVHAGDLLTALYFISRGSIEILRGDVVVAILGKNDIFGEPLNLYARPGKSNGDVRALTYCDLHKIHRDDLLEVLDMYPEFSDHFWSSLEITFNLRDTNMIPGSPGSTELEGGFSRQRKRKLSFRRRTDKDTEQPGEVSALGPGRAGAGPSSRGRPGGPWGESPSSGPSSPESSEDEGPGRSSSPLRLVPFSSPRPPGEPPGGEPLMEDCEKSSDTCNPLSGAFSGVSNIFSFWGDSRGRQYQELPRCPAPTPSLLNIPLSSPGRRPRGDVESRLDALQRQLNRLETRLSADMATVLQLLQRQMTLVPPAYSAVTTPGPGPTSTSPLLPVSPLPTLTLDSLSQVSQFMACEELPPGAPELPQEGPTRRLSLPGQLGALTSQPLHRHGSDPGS
- procedure text: hERG assay, whole cell recordings in CHO cells (AVIVA)
- Assay type: cell-based
- protocol conditions: CHO cells stably expressing hERG, pH 7.4
Report as a plain number; the unit % is understood.

smiles notation	study system	inhibition at 1 µM [%]
CC(C)COc1ccc(CNC(=O)N(Cc2ccc(F)cc2)C2CCN(C)CC2)c(F)c1	hERG channel (Homo sapiens, UniProt Q12809)	87
Cc1nc2cc(CNC(=O)N(Cc3ccc(F)cc3F)C3CCN(C)CC3)ccc2o1	hERG channel (Homo sapiens, UniProt Q12809)	10
CN1CCC(N(Cc2ccc(F)cc2F)C(=O)NCc2ccc(OCC(F)F)cc2)CC1	hERG channel (Homo sapiens, UniProt Q12809)	23
CC(C)Oc1ccc(CNC(=O)N(Cc2ccc(Cl)cc2F)C2CCN(C)CC2)cc1	hERG channel (Homo sapiens, UniProt Q12809)	37
CC(C)COc1ccc(CNC(=O)N(Cc2ccc(F)cc2)C2CCN(C)CC2)cc1F	hERG channel (Homo sapiens, UniProt Q12809)	70

Turning now to a further record.
### Prompt In one line, give reported inhibition at 1 µM of the entry `CN1CCC(N(Cc2ccc(F)cc2F)C(=O)NCc2ccc(OC3CC3)cc2)CC1` .
### Response 32

====

- study system: hERG potassium channel (Homo sapiens, UniProt Q12809)
- Sequence (Q12809 whole entry): as above
- procedure text: in vitro
- protocol conditions: human, pH 7.4
observed property: inhibition at 0.09 µM

### Prompt In one line, give reported inhibition at 0.09 µM of the entry COc1cc(N)c(Cl)cc1C(=O)NC1CCN(CCCOc2ccc(F)cc2)CC1OC (stereo not shown) [cisapride, reference compound] .
### Response ~80%

====

- study system: hERG channel (Homo sapiens, UniProt Q12809)
- Construct: host or cells: CHO cells, stably transfected
- procedure text: hERG assay, whole cell recordings in CHO cells (AVIVA)
- Format: cell-based
- protocol conditions: CHO cells stably expressing hERG, pH 7.4
Item-by-item account of inhibition at 1 µM
Report as a plain number; the unit % is understood.

For orientation, consider the following solved cases.
compound	unit of measurement	test result
CN1CCC(N(Cc2ccc(F)cc2F)C(=O)NCc2ccc3cn[nH]c3c2)CC1 [Example 41]	%	23
CC(C)Oc1ccc(CNC(=O)N(Cc2ccc(F)cc2F)C2CCN(C)CC2)c(F)c1 [Example 144, Trifluoroacetic Acid]	%	37
CN1CCC(N(Cc2ccc(F)cc2F)C(=O)NCc2ccc(OCCCF)cc2)CC1 [Example 151, Trifluoroacetic Acid]	%	16
CN1CCC(N(Cc2ccc(F)cc2F)C(=O)NCc2ccc(OC(C)(C)C)cc2)CC1 [Example 18]	%	17

Turning now to a further record.
### Prompt Return reported inhibition at 1 µM for target or system hERG channel (Homo sapiens, UniProt Q12809), item CC(C)(C)Oc1ccc(CNC(=O)N(Cc2ccc(F)cc2F)C2CCNCC2)cc1 [Example 149, Trifluoroacetic Acid] .
### Response 40

====

- study system: 5HT2A (Homo sapiens)
- procedure text: Receptor Selection and Amplification (R-SAT) functional assay
- Type: cell-based
- Parameters: expressed in transfected cells; host or cells: NIH3T3 cells, pSI mammalian expression vector
- protocol conditions: NIH3T3 cells; Ki from IC50 by Cheng and Prussoff; read-out: 5-HT2a (pKi) (R-SAT) (converted)
observed property: Ki (nM)

For orientation, consider the following solved cases.
molecule	study system	Ki (nM)
COc1cc(F)ccc1CN(C(=O)NCc1ccc(OCC(C)C)cc1)C1CCN(C)CC1 [Example 91, Trifluoroacetic Acid]	5HT2A (Homo sapiens)	15.8
CC(C)Oc1ccc(CNC(=O)N(Cc2ccc(F)c(F)c2F)C2CCNCC2)cc1 [Example 132, Trifluoroacetic Acid]	5HT2A (Homo sapiens)	79.4
CN1CCC(N(Cc2ccc(F)cc2F)C(=O)NCc2ccc3[nH]ncc3c2)CC1 [Example 93, Trifluoroacetic Acid]	5HT2A (Homo sapiens)	39.8

[1] CC(C)COc1ccc(CNC(=O)N(Cc2ccc(C(F)(F)F)cc2F)C2CCN(C)CC2)cc1 [Example 68]
[2] CC1(C)Cc2cc(CNC(=O)N(Cc3ccc(F)cc3F)C3CCNCC3)ccc2O1 [Example 158, Trifluoroacetic Acid]
### Prompt For the pair 1 and 2 , which entry has the numerically smaller recorded Ki? Which one? Tell me its label.
### Response 2

====

- study system: 5HT2A (Homo sapiens, UniProt P28223)
- procedure text: Receptor Selection and Amplification (R-SAT) functional assay
- Type: cell-based
- Parameters: expressed in transfected cells; host or cells: NIH3T3 cells, pSI mammalian expression vector
- protocol conditions: NIH3T3 cells; Ki from IC50 by Cheng and Prussoff; read-out: 5-HT2a (pKi) (R-SAT) (converted)
observed property: Ki (nM)

smiles notation	Ki / nM
COc1ccc(CNC(=O)N(Cc2ccc(F)cc2F)C2CCN(C)CC2)c(Cl)c1	25.1

[A] COc1ccc(CNC(=O)N(Cc2ccc(F)cc2F)C2CCN(C)CC2)c(OC)c1
[B] CN1CCC(N(Cc2ccc(F)cc2F)C(=O)NCc2ccc3c(c2)COC3)CC1
[C] CCOc1ccc(CNC(=O)N(Cc2ccc(F)cc2F)C2CCN(C)CC2)cc1
### Prompt Sort by Ki, descending. Please, when replying, give the labels in the order that was requested.
### Response A, B, C

====

- study system: 5HT2A (Homo sapiens, UniProt P28223)
- procedure text: Receptor Selection and Amplification (R-SAT) functional assay
- Format: cell-based
- Parameters: expressed in transfected cells; host or cells: NIH3T3 cells, pSI mammalian expression vector
- protocol conditions: NIH3T3 cells; Ki from IC50 by Cheng and Prussoff; read-out: 5-HT2a (pKi) (R-SAT) (converted)
- From the text: Receptor Selection and Amplification (R-SAT) Assays. […] The IC50 determined in the RSAT assay was converted into a Ki value using the method of Cheng and Prussoff, Biochem Pharmacol., 1973 Dec. 1; 22(23):3099-108. pKi is the negative of the log(Ki).
observed property: Ki (nM)

smiles notation	observed property	test result
COc1c(F)ccc(CNC(=O)N(Cc2ccc(F)cc2F)C2CCN(C)CC2)c1F	Ki	7.94

[1] CC(C)COc1ccc(CNC(=O)N(Cc2ccc(F)cc2Cl)C2CCNCC2)cc1
[2] COc1cc(F)c(CN(C(=O)NCc2ccc(OC(C)C)cc2)C2CCN(C)CC2)c(F)c1
[3] CN1CCC(N(Cc2ccc(F)cc2F)C(=O)NCc2ccc(COCCO)c(F)c2)CC1
### Prompt List by increasing Ki. Please, when replying, give the labels in the order that was requested.
### Response 2, 1, 3
